method: Drug repurposing screens with cells derived from glioblastoma tumor samples (AID 1345199); further: on the % scale 0 is the no-effect control and ±100 the full control effect; nearly all actives have a fitted effect of over 40% in size
condition: GBM patient neurospheres viability, ATP luminescence, 48 h; at 45.9 µM (top of the series); tumour line D
Results filed as inconclusive are left out.
endpoint-label: activity, negative = cell killing (%)
Answer in %, number only, no unit symbol.

Consider the compound Nc1cccc2c1CN(C1CCC(=O)NC1=O)C2=O (stereo unspecified) and give its measured activity, negative = cell killing. -1.35

Consider the compound COc1c2occc2cc2ccc(=O)oc12 and give its measured activity, negative = cell killing. -10.6

Consider the compound O=C(CS(=O)Cc1ccco1)NCC=CCOc1cc(CN2CCCCC2)ccn1 (stereo unspecified) and give its measured activity, negative = cell killing. -2.16

Consider the compound CC1(C)CCC(C)(C)c2cc(NC(=O)c3ccc(C(=O)O)cc3)ccc21 and give its measured activity, negative = cell killing. -17.2

Consider the compound Nc1ncn([C@H]2C[C@H](O)[C@@H](CO)O2)c(=O)n1 and give its measured activity, negative = cell killing. -5.51

Consider the compound Nc1ccc(S(N)(=O)=O)cc1 and give its measured activity, negative = cell killing. -7.18

* * *

system: Luciferin 4-monooxygenase (Photinus pyralis)
method: Biochemical firefly luciferase enzyme assay for NPC (AID 624030);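 further: purified P. pyralis luciferase at 10 nM with luciferin and ATP substrate; 0% = DMSO and -100% = full luciferase inhibition by PTC124 control; nearly all actives have a fitted effect of over 70% in size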
condition: purified P. pyralis luciferase, luminescence, 5 min; series mostly up to 58.6 µM
Inconclusive results are not listed. Activity calls are given as the source filed them. The call rests on the fitted dose curve; in most records, active means well fitted inhibition curve with a large enough effect; inconclusive means small, poorly fitted or top-dose-only effect; inactive means flat fitted curve, though single readings scatter.
endpoint-label: outcome

1. CCN(CCO)CCCC(C)Nc1ccnc2cc(Cl)ccc12 (stereo not drawn) | inactive
2. C=CCc1cc(OC)c(O)c(C(=O)NCCO)c1 | inactive
3. O=C(O)c1cn(-c2ccc(F)cc2)c2cc(N3CCNCC3)c(F)cc2c1=O | inactive

* * *

method: Quantitative High-Throughput drug screen in 47 multiple myeloma cell lines against the NCATS MIPE library collection: SKMM1_PLB cell viability assay (AID 1919863); further: nearly all actives have a fitted effect of over 35% in size
condition: SKMM1 myeloma viability, CellTiter-Glo ATP, 48 h; hits give low values
Results filed as inconclusive are left out.
Kindly supply the reported viability values for the records listed here.
Answer in %, number only, no unit symbol.

Consider the compound O=C(OC1C[C@H]2CC[C@@H](C1)[N+]21CCCC1)C(O)(c1ccccc1)c1ccccc1 (stereo not given in full) and give its measured viability. 138

Consider the compound CC1=C(C(=O)O)N2C(=O)[C@@H](NC(=O)[C@H](N)C3=CCC=CC3)[C@H]2SC1 and give its measured viability. 126

Consider the compound N[C@@H](Cc1cc(I)c(Oc2cc(I)c(O)c(I)c2)c(I)c1)C(=O)O and give its measured viability. 121

Consider the compound Cc1nc2n(c(=O)c1CCN1CCC(c3noc4cc(F)ccc34)CC1)CCCC2 and give its measured viability. 134

Consider the compound O=C(CS(=O)Cc1ccco1)NCC=CCOc1cc(CN2CCCCC2)ccn1 (stereo not given) and give its measured viability. 134

Consider the compound CN(C)C(=O)COC(=O)Cc1ccc(OC(=O)c2ccc(N=C(N)N)cc2)cc1 and give its measured viability. 150

Consider the compound O=P(O)(O)C(O)(Cn1ccnc1)P(=O)(O)O and give its measured viability. 138

Consider the compound O=C(NC(Cc1cc(=O)[nH]c2ccccc12)C(=O)O)c1ccc(Cl)cc1 (stereo not given) and give its measured viability. 118

Consider the compound Cc1c(OCC(F)(F)F)ccnc1CS(=O)c1nc2ccccc2[nH]1 (stereo not given) and give its measured viability. 128

Consider the compound Cc1ccc(C)c(OCCCC(C)(C)C(=O)O)c1 and give its measured viability. 118
